Please use criterion met whenever logP is not below 4, and criterion not met whenever it is.

Please indicate if the recorded logP for CCN(CC)CC(=O)NC1c2ccccc2Oc2ccccc21 meets or exceeds 4.
criterion not met

Please indicate if the recorded logP for COc1cccc2c1Oc1ccccc1C2NC(=O)N(CCCl)N=O (configuration not stated) meets or exceeds 4.
criterion not met

Please indicate if the recorded logP for CCOc1ccc2c(c1)C(NC(=O)N(CCCl)N=O)c1ccccc1O2 (configuration not stated) meets or exceeds 4.
criterion met

Please indicate if the recorded logP for Cc1cc(C)c2c(c1)C(NC(=O)N(CCCl)N=O)c1ccccc1O2 (configuration not stated) meets or exceeds 4.
criterion met

Please indicate if the recorded logP for COc1ccc2c(c1)C(NC(=O)N(CCCl)N=O)c1ccccc1O2 (configuration not stated) meets or exceeds 4.
criterion met

Please indicate if the recorded logP for O=NN(CCCl)C(=O)NC1c2ccccc2Sc2ccccc21 meets or exceeds 4.
criterion met

Please indicate if the recorded logP for O=NN(CCCl)C(=O)NCCSC1c2ccccc2Oc2ccccc21 meets or exceeds 4.
criterion met

Please indicate if the recorded logP for Cc1cccc2c1Oc1ncccc1C2NC(=O)CN(C)C (configuration not stated) meets or exceeds 4.
criterion not met

Please indicate if the recorded logP for CCN(CC)CC(=O)NC1c2ccccc2Sc2c(C)cccc21 (configuration not stated) meets or exceeds 4.
criterion met

Please indicate if the recorded logP for O=NN(CCCl)C(=O)NCC1c2ccccc2Oc2ccccc21 meets or exceeds 4.
criterion met

Please indicate if the recorded logP for Cc1cccc2c1Oc1ccccc1C2NC(=O)CCN(C)C (configuration not stated) meets or exceeds 4.
criterion not met

Please indicate if the recorded logP for Cc1ccc2c(c1)C(NC(=O)N(CCCl)N=O)c1ccccc1O2 (configuration not stated) meets or exceeds 4.
criterion met
